Taken from ChEMBL document CHEMBL4396917.

- Test system: PC-3
- assay comment: Cytotoxicity against human PC3 cells assessed as reduction in cell growth after 72 hrs by MTT assay
- Format: cell-based
- protocol conditions: PC-3, 72 h
assay readout: IC50

Give the measured IC50 of `COc1ccc(NC(=O)c2cccc(/C=C3\CC(=O)N(c4ccc(C)cc4)C3=O)c2)cc1` .
> 100 µM

====

- assay comment: Induction of apoptosis in human HT-29 cells assessed as viable cells at 5 uM after 24 hrs by Annexin V-FITC/propidium iodide staining based flow cytometric analysis (reference value: 80.8 to 81.1%)
- Format: cell-based
- protocol conditions: read-out: Activity
assay readout: viability at 24 h, 5 µM

Give the measured viability at 24 h, 5 µM of `COc1ccc(NC(=O)c2cccc(/C=C3\CC(=O)N(c4ccc(C)cc4)C3=O)c2)cc1` .
75.8 to 77.9%

====

- assay comment: Induction of apoptosis in VEGF-stimulated HUVEC assessed as viable cells at 20 uM after 24 hrs by Annexin V-FITC/propidium iodide staining based flow cytometric analysis (reference value: 69.6%)
- Format: cell-based
- protocol conditions: human, read-out: Activity
assay readout: viability at 24 h, 20 µM (%)
Give bare numbers, in %.

Give the measured viability at 24 h, 20 µM of `COc1ccc(NC(=O)c2cccc(/C=C3\CC(=O)N(c4ccc(C)cc4)C3=O)c2)cc1` .
74.5

====

- assay comment: Induction of apoptosis in VEGF-stimulated HUVEC assessed as viable cells at 10 uM after 24 hrs by Annexin V-FITC/propidium iodide staining based flow cytometric analysis (reference value: 69.6%)
- Type: cell-based
- protocol conditions: human, read-out: Activity
assay readout: viability at 24 h, 10 µM (%)
Answers are plain numbers, in %.

Give the measured viability at 24 h, 10 µM of `COc1ccc(NC(=O)c2cccc(/C=C3\CC(=O)N(c4ccc(C)cc4)C3=O)c2)cc1` .
72

====

Give measured IC50 for each item. Keep answers brief.
- Tested on: HUVEC
- assay comment: Antiangiogenic activity against HUVEC assessed as inhibition of cell proliferation measured […] by MTT assay
- Assay type: functional, cell-based
- protocol conditions: Homo sapiens, 0.5 h

• COc1ccc(NC(=O)c2cccc(/C=C3\CC(=O)N(c4ccc(C)cc4)C3=O)c2)cc1 = 26.6 µM

Please turn your attention to the following entry.
For HUVEC, provide IC50 of `CCN(CC)CCNC(=O)c1c(C)[nH]c(/C=C2\C(=O)Nc3ccc(F)cc32)c1C` please.
6.46 µM

====

- Tested on: HCT-116
- assay comment: Cytotoxicity against human HCT116 cells assessed as reduction in cell growth after 72 hrs by MTT assay
- Format: cell-based
- protocol conditions: HCT-116, 72 h
Give measured IC50 for each item. Keep answers brief.

• Cc1ccc(N2C(=O)C/C(=C\c3cccc(C(=O)Nc4ccc(Cl)cc4)c3)C2=O)cc1 = > 100 µM
• CCc1cccc(NC(=O)c2cccc(/C=C3\CC(=O)N(c4ccccc4)C3=O)c2)c1 = 81.2 µM
• Cc1ccc(NC(=O)c2cccc(/C=C3\CC(=O)N(c4ccccc4)C3=O)c2)cc1C = > 100 µM
• CCCCCN1C(=O)C/C(=C\c2cccc(C(=O)Nc3ccc(OC)cc3)c2)C1=O = > 100 µM
• O=C(NCc1ccccc1)c1cccc(/C=C2\CC(=O)N(c3ccccc3)C2=O)c1 = > 100 µM

Batch request: IC50 for each of the following molecules.
1. Cc1ccc(NC(=O)c2cccc(/C=C3\CC(=O)N(c4ccccc4)C3=O)c2)cc1
2. CCCCN1C(=O)C/C(=C\c2cccc(C(=O)Nc3cccc(CC)c3)c2)C1=O
3. CCOc1ccc(NC(=O)c2cccc(/C=C3\CC(=O)N(Cc4ccccc4)C3=O)c2)cc1
4. CCCCNC(=O)c1cccc(/C=C2\CC(=O)N(Cc3ccccc3)C2=O)c1
5. COc1ccc(NC(=O)c2cccc(/C=C3\CC(=O)N(c4ccc(C)cc4)C3=O)c2)cc1
6. O=C(Nc1cccc(F)c1)c1cccc(/C=C2\CC(=O)N(c3ccccc3)C2=O)c1

["> 100 µM", "75.3 µM", "41.7 µM", "95 µM", "> 100 µM", "> 100 µM"]

Batch request: IC50 for each of the following molecules.
1. Cc1cccc(NC(=O)c2cccc(/C=C3\CC(=O)N(c4ccccc4)C3=O)c2)c1
2. O=C(Nc1ccccc1)c1cccc(/C=C2\CC(=O)N(c3ccccc3)C2=O)c1

1. > 100 µM
2. > 100 µM
